test system: MDA-MB-231 breast; assay: NCI-60 one-dose screen, 48 h; details: 10 µM unless noted
The panel holds about 83,000 compounds, 20% with a hit somewhere; the sample as a whole holds those more often. Activity calls are given as the source filed them. Rule for the calls: active = growth percent below 10; inactive = the rest.
Outcomes: true for active, false for inactive

Record smiles | Category
COC(=O)[C@H](Cc1cn(C)cn1)NC(=O)[C@@H](NC(=O)Nc1cc(C(F)(F)F)cc(C(F)(F)F)c1)C(C)C | true
NC(=O)c1cc(Cl)ccc1NC(=O)c1ccccc1-c1ccccc1 | false
COc1ccc(-c2nc3sc4c(c3c(=O)[nH]2)CCCCCC4)cc1 | false
C[C@H](C(=O)N[C@@H](Cc1ccc(-c2ccccc2)cc1)C(=O)NC1CC(C)(C)NC(C)(C)C1)c1ccc(-c2ccccc2)c(F)c1 | true
OCc1n(Cc2ccc3ccccc3c2)cc[n+]1Cc1ccc2ccccc2c1 | false
COc1cnc2c(c1)C(=O)c1c-2n(CCCN2CCOCC2)c(=O)c2cc(F)ccc12 | false
CC(=O)Nc1cc(C(c2ccccc2)c2ccccc2)cc(C(c2ccccc2)c2ccccc2)c1C | false
COc1cc(/C=C/C(=O)CC(=O)/C=C/c2ccc(OC(=O)CCNC34CC5CC(CC(C5)C3)C4)c(OC)c2)ccc1OC(=O)CCNC12CC3CC(CC(C3)C1)C2 | false

---

tested on: NCI-H23 lung; assay: NCI-60 one-dose screen, 48 h (100 = growth as untreated, 0 = no growth, -100 = all killed); details: 10 µM unless noted
Compounds without any hit were thinned out: in the full panel of roughly 83,000, 20% have a hit.
Strictly below 80% in growth: Condition met. Otherwise: Condition not met.

Molecule | Tgt | Category
OCCCc1n(Cc2ccc3ccccc3c2)c2ccccc2[n+]1Cc1ccc2ccccc2c1 | NCI-H23 lung | Condition met
O=C(CSc1nnc(-c2cc(-c3ccccc3)nc3ccccc23)o1)c1ccc(Br)cc1 | NCI-H23 lung | Condition not met
COc1cc2c(cc1OC)C(=O)/C(=C/c1cccc(OCC(=O)c3ccccc3)c1)C2 | NCI-H23 lung | Condition not met
Cc1ccc(NC(=O)c2sc3nc4c(cc3c2N)C(=O)CCC4)cc1 | NCI-H23 lung | Condition met
COc1cc(C2=NN(C=O)C(c3cccc(Nc4ccnc5cc(Cl)ccc45)c3)C2)cc(OC)c1OC (stereo not given) | NCI-H23 lung | Condition met
COc1ccc(C2CC(c3ccc(Nc4ccnc5cc(Cl)ccc45)cc3)=NN2C(C)=O)cc1 (stereo not given) | NCI-H23 lung | Condition not met
CSc1nc(-c2ccc(O)cc2O)c2c(=O)[nH]c(Nc3ccc(S(=O)(=O)Nc4nc(C)cc(C)n4)cc3)nc2n1 | NCI-H23 lung | Condition not met
Clc1ccc2c(c1)C(Br)c1cc(Cl)cc(Cl)c1-2 (stereo not given) | NCI-H23 lung | Condition met
Cc1cc2ccccn2c1C(=O)c1ccc(C(=O)c2ccccc2)cc1 | NCI-H23 lung | Condition not met
O=CN1N=C(c2ccc(Nc3ccnc4cc(Cl)ccc34)cc2)CC1c1ccc(Cl)cc1 (stereo not given) | NCI-H23 lung | Condition met
N#Cc1c(NC(=O)c2ccco2)[n+]([O-])c2ccccc2[n+]1[O-] | NCI-H23 lung | Condition not met
O=C1C(=O)c2c(nc3ccc(Cl)cn23)-c2ccccc21 | NCI-H23 lung | Condition met
Cc1ccc(/C=C/C(=O)c2ccc(F)cc2)s1 | NCI-H23 lung | Condition not met
O=C(COc1ccc(/C=C2\Cc3ccccc3C2=O)cc1)c1ccc(Cl)cc1 | NCI-H23 lung | Condition not met
O=c1[nH]c(SCc2ccccc2)nc2nc(Nc3ccc(NC(=S)Nc4ccccc4)cc3)nc(-c3ccc(O)cc3O)c12 | NCI-H23 lung | Condition not met
CCOC(=O)C(Br)=P(c1ccccc1)(c1ccccc1)c1ccccc1 | NCI-H23 lung | Condition not met
CC(=O)Nc1c(Cl)cc2c(c1Cl)Cc1ccccc1-2 | NCI-H23 lung | Condition not met
Cc1ncc(C(=O)Nc2ccc(CN3CCN(C)CC3)c(C(F)(F)F)c2)cc1C#Cc1cncc2ncccc12 | NCI-H23 lung | Condition met
CCOc1cc(/C=C/C(=O)CC(=O)/C=C/c2ccc(OC(=O)CNCCN(CC)CC)c(OCC)c2)ccc1OC(=O)CNCCN(CC)CC | NCI-H23 lung | Condition met

---

system: DU-145 prostate; assay: NCI-60 one-dose screen, 48 h (100 = growth as untreated, 0 = no growth, -100 = all killed); details: 10 µM unless noted
The panel holds about 83,000 compounds, 20% with a hit somewhere; the sample as a whole holds those more often.
Strictly below 90% in growth: class 1. Otherwise: class 0.

Record smiles | Tgt | Category
O=C1/C(=C\c2coc3ccccc3c2=O)c2ccccc2N1c1c(Cl)cccc1Cl | DU-145 prostate | class 1
COc1cc(C(=O)c2cc3c(cc2C)OCO3)cc(OC)c1OC | DU-145 prostate | class 1
Cc1ccc(N/N=C(/C(=O)c2ccc(Cl)cc2)c2nc(C)cc(=O)[nH]2)cc1 | DU-145 prostate | class 0
CC(C)Cn1cnc2c(NCn3nc(-c4cc(Cl)cc(Cl)c4Cl)n(/N=C/c4ccc(Cl)cc4)c3=S)nc3ccccc3c21 | DU-145 prostate | class 0

---

system: MDA-MB-231 breast; experiment: NCI-60 one-dose screen, 48 h; conditions: 10 µM unless noted
The panel holds about 83,000 compounds, 20% with a hit somewhere; the sample as a whole holds those more often. Activity calls are given as the source filed them. How the source made its calls: active means growth percent below 10; inactive means the rest.
Outcomes: active, inactive

Molecule | Category
NC(=NCCCCCCN=C(N)/N=C(\N)Nc1ccc(Cl)cc1)/N=C(\N)Nc1ccc(Cl)cc1 | active
O=C(COc1ccc(/C=C2\Oc3ccc4ccccc4c3C2=O)cc1)c1ccc(Cl)cc1 | inactive
C[C@]12CCC(=O)C=C1CC[C@H]1[C@@H]3C[C@@H](O)[C@](O)(C(=O)CO)[C@@]3(C)C[C@H](O)[C@@]12F | inactive
Cn1ccnc1C(=O)/C=C/c1ccc(C(=O)Nc2nc3ccccc3[nH]2)cc1 | inactive
COP(=O)(OC)C(c1ccccc1)(c1ccccc1)c1ccccc1 | inactive
O=C(Nc1nc2c(C(F)(F)F)cccc2s1)c1cc(Cl)ccc1O | active
CCOC(=O)c1sc(NC(=O)COc2cccc(/C=C3\CCc4cc(OC)ccc4C3=O)c2)nc1C | inactive
CCSc1nc(-c2ccco2)n2nc(-c3ccco3)cc2n1 | inactive
c1ccc2nc(Cn3c[n+](Cc4ccc5ccccc5n4)c4ccccc43)ccc2c1 | inactive
CCCn1c(N)c(C(=O)CNc2ccc(I)cc2)c(=O)[nH]c1=O | inactive
O=C1c2cccc3c([N+](=O)[O-])ccc(c23)C(=O)N1CCCCl | active
NC(=O)NS(=O)(=O)c1ccc(N2N=C(C(F)(F)F)CC2c2cc(C(F)(F)F)cc(C(F)(F)F)c2)cc1 (centres undefined) | inactive
O=C(Nc1ccccc1)c1cc(-n2cnc([N+](=O)[O-])c2)cc(-n2cnc([N+](=O)[O-])c2)n1 | inactive
CCN(Cc1cccc(S(=O)(=O)[O-])c1)c1ccc(C(=C2C=CC(=[N+](CC)Cc3cccc(S(=O)(=O)O)c3)C=C2)c2ccccc2S(=O)(=O)O)cc1 | inactive
COc1ccc(NC(=O)[C@@H]2C[C@H]2c2ccccc2)c(C(N)=O)c1 | inactive
CCOC(=O)Nc1cc(-c2ccc(C)c(NS(C)(=O)=O)c2)nn2c(C)nnc12 | inactive
O=C(CC1Sc2ccccc2NC1=O)NNc1cccc(Cl)c1Cl (centres undefined) | inactive
O=C1/C(=C/c2ccccc2O)C(=S)SN1Cc1ccco1 | inactive
COc1ccc(-c2cc(-c3cccnc3)nc3sc(C(=O)Nc4ccccc4)c(N)c23)cc1OC | inactive
CCc1ccc(-c2nc(SCC(=O)NC3CCCCC3)n[nH]2)cc1 | inactive
CC(=O)O[C@H]1CC[C@@]2(C)C(=CC[C@@H]3[C@@H]2CC[C@]2(C)C(c4cccnc4)=CC[C@@H]32)C1 | inactive
COc1ccc2nc(-c3ccc(Cl)cc3)cc(-c3nnc(SCC(=O)Nc4ccc(C(C)=O)cc4)n3-c3ccccc3)c2c1 | inactive
O=c1ccn(C2CC=C(CO)O2)c(=O)[nH]1 (centres undefined) | inactive
COc1ccc(-c2cc(-c3cccnc3)nc(S(=O)(=O)CC(=O)Nc3ccc(C)cc3)c2C#N)cc1OC | inactive
O=C(CNC(=O)c1cccc2ccccc12)Nc1ccccc1Oc1cccc(O)c1 | inactive
O=C(Oc1ccccc1)C(Br)C(Br)c1ccccc1 (centres undefined) | inactive
N#Cc1c(-c2ccccc2)cc(-c2ccccc2)n(CCCCCCC(=O)O)c1=O | inactive
N#Cc1ncc(-c2ccc(C(F)(F)F)cc2)c(NC2CCCCCC2)n1 | inactive
C[C@H](C(=O)N[C@@H](Cc1ccc(-c2ccccc2)cc1)C(=O)NC1CC(C)(C)N(C)C(C)(C)C1)c1ccc(-c2ccccc2)c(F)c1 | active
CC(=O)N1N=C(c2ccc(Nc3nc(NCCO)nc(NCCO)n3)cc2)CC1c1ccc(Cl)cc1 (centres undefined) | inactive
Cc1cc(-c2ccccc2)cc(C)n1 | inactive
Cc1cc(Br)c(C)cc1Br | inactive
O=C1C=CC(=O)N1c1ccccc1N1C(=O)C=CC1=O | inactive
O=C1OC2(c3ccccc31)c1ccccc1-c1ccccc12 | inactive
COc1cc(/C(Cl)=C/C=C/C(=O)c2c(C)[n+]([O-])c3ccc(Cl)cc3[n+]2[O-])cc(OC)c1OC | inactive
Cc1sc2nc(NCCc3cccs3)[nH]c(=O)c2c1C | inactive
COc1ccc(OC)c2c1CCC1(C2)NC(=O)NC1=O (centres undefined) | inactive
CCOC1Oc2ccccc2C(=O)/C1=N/c1nccs1 (centres undefined) | inactive
COC(=O)Nc1ccc2ccc3c(NC(=O)OC)ccc4ccc1c2c43 (tested in a mixture with another compound) | inactive

// data source = PubChem BioAssay (NCI)
